Molecular target: rACE2 (Homo sapiens, UniProt Q9BYF1)
Sequence (Q9BYF1 18-805): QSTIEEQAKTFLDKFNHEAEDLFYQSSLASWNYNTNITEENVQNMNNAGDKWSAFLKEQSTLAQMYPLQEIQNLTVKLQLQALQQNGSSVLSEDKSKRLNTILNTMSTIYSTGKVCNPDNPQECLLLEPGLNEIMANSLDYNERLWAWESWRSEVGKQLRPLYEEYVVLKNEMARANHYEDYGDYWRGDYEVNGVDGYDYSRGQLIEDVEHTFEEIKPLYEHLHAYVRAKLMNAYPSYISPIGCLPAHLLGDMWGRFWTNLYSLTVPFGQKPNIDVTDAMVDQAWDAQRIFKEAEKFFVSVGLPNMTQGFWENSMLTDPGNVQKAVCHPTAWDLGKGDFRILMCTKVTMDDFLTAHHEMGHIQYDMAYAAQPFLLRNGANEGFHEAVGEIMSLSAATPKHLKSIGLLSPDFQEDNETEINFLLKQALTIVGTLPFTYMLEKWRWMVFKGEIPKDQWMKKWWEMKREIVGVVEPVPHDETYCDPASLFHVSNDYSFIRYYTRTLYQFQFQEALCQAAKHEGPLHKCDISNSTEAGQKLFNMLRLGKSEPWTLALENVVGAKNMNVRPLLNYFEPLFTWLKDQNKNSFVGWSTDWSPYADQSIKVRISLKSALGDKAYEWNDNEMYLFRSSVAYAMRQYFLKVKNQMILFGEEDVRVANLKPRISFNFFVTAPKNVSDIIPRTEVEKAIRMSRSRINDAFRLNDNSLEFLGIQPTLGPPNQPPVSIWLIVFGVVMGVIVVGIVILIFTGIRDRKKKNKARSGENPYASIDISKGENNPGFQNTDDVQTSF
pIC50: −log10 of the molar value.

{"line-notation": "CC(C)C[C@H](N[C@@H](Cc1cncn1Cc1cc(Cl)cc(Cl)c1)C(=O)O)C(=O)O", "pIC50": 9.72}
